Numbers sourced from patent US10363239B2.

tested on: mu opiate receptor (MOR); experiment: MOR agonist activity using [35S]GTPγS binding assay in striatal membranes; type: biochemical; details: Series B; 0.1 μM compound, relative to DAMGO
measured-metric: % DAMGO (0.1 μM) (%)
Record the value in %, omitting the unit from your answer.

# example entries with known answers
Ask: Give its % DAMGO (0.1 μM) value. Item: COc1c2c(cc3c1C(CC(=O)CCc1ccc(F)cc1)[N+](C)(C)CC3)OCO2 (centres unmarked)
Reply: 70.3

Ask: Give its % DAMGO (0.1 μM) value. Item: COc1c2c(cc3c1C(CC(=O)Cc1ccc(C#N)cc1)[N+](C)(C)CC3)OCO2 (centres unmarked)
Reply: 97.8

Ask: Give its % DAMGO (0.1 μM) value. Item: COc1c2c(cc3c1C(CC(=O)Cc1ccccc1C)N(C)CC3)OCO2 (centres unmarked)
Reply: 94.8

Ask: Give its % DAMGO (0.1 μM) value. Item: COc1ccc(OC)c(CCC(=O)CC2c3c(cc4c(c3OC)OCO4)CC[N+]2(C)C)c1 (centres unmarked)
Reply: 49.4

Further cases:
Ask: Give its % DAMGO (0.1 μM) value. Item: COCOc1ccc(C(=O)CC2c3c(cc4c(c3OC)OCO4)CC[N+]2(C)C)cc1C (centres unmarked)
Reply: 39.3

Ask: Give its % DAMGO (0.1 μM) value. Item: COc1c2c(cc3c1C(CC(=O)c1ccc(C#N)cc1)[N+](C)(C)CC3)OCO2 (centres unmarked)
Reply: 77.4

Ask: Give its % DAMGO (0.1 μM) value. Item: COc1cc(CC(=O)CC2c3c(cc4c(c3OC)OCO4)CC[N+]2(C)C)cc(OC)c1OC (centres unmarked)
Reply: 84.0

Ask: Give its % DAMGO (0.1 μM) value. Item: COc1c2c(cc3c1C(CC(=O)CCc1ccccc1)N(C)CC3)OCO2 (centres unmarked)
Reply: 58.1

Ask: Give its % DAMGO (0.1 μM) value. Item: COc1c2c(cc3c1C(CC(=O)c1ccc(N4CCOCC4)cc1)[N+](C)(C)CC3)OCO2 (centres unmarked)
Reply: 102.8

Ask: Give its % DAMGO (0.1 μM) value. Item: COc1c2c(cc3c1C(CC(O)CCc1ccccc1)[N+](C)(C)CC3)OCO2 (centres unmarked)
Reply: 58.1

Ask: Give its % DAMGO (0.1 μM) value. Item: COc1ccc(C(=O)CC2c3c(cc4c(c3OC)OCO4)CC[N+]2(C)C)cc1C (centres unmarked)
Reply: 75.9

Ask: Give its % DAMGO (0.1 μM) value. Item: COc1cccc(OC)c1C(=O)CC1c2c(cc3c(c2OC)OCO3)CC[N+]1(C)C (centres unmarked)
Reply: 99.4

Ask: Give its % DAMGO (0.1 μM) value. Item: COc1c2c(cc3c1C(CC(=O)c1ccncc1)[N+](C)(C)CC3)OCO2 (centres unmarked)
Reply: 50.5

Ask: Give its % DAMGO (0.1 μM) value. Item: COc1c2c(cc3c1C(CC(O)CCc1ccccc1)N(C)CC3)OCO2 (centres unmarked)
Reply: 68.4

Ask: Give its % DAMGO (0.1 μM) value. Item: COc1ccc(CCC(=O)CC2c3c(cc4c(c3OC)OCO4)CC[N+]2(C)C)c(OC)c1 (centres unmarked)
Reply: 42.4

Ask: Give its % DAMGO (0.1 μM) value. Item: COc1ccc(C(=O)CC2c3c(cc4c(c3OC)OCO4)CC[N+]2(C)C)c(O)c1 (centres unmarked)
Reply: 77.6

Ask: Give its % DAMGO (0.1 μM) value. Item: COc1ccc(CC(=O)CC2c3c(cc4c(c3OC)OCO4)CC[N+]2(C)C)c(OC)c1 (centres unmarked)
Reply: 89.4
